assay_notes: Isothermal titration calorimetry: critical aggregation concentration and degree of ionization
Assay type: physicochemical
test_context: 37° C.
Items are presented alongside their recorded Degree of Ionization.
Give only the figure.

What Degree of Ionization value was documented for this molecule, `CCCCCCCCCC[N+](C)(C)Cc1cc(C[N+](C)(C)CCO)cc(C[N+](C)(C)CCCCCCCCCC)c1.[Br-].[Br-].[Br-]` ? 0.24

* * *

Reported values of CAC for individual entries
assay_notes: Isothermal titration calorimetry: critical aggregation concentration and degree of ionization
Assay type: physicochemical
test_context: 37° C., ITC, pure water
Procedure: Isothermal titration calorimetry (ITC) was used to determine the critical aggregation concentration (CAC) and the degree of ionization at 37° C. associated with aggregate formation for each amphiphile for the M-E series, as shown in Table 1. A Nano ITC was used to measure the heat change associated with the deaggregation of amphiphiles via power compensation. […] CAC and ΔHagg were determined using a Nano-ITC (TA-Instruments). […]
Your reply should be a number followed by the unit it is expressed in.

Take a look at these entries with their results.
- compound: "CCCCCCCCCCCCCCCC[N+](C)(C)Cc1cc(C[N+](C)(C)CCO)cc(C[N+](C)(C)CCCCCCCCCCCCCCCC)c1.[Br-].[Br-].[Br-] [Compound 5]"
  parameter: "CAC"
  value_reported: "0.12 mM"
- compound: "CCCCCCCCCC[N+](C)(C)Cc1cc(C[N+](C)(C)CCO)cc(C[N+](C)(C)CCCCCCCCCC)c1.[Br-].[Br-].[Br-] [Compound 2]"
  parameter: "CAC"
  value_reported: "9.5 mM"
- compound: "CCCCCCCCCCCCCC[N+](C)(C)Cc1cc(C[N+](C)(C)CCO)cc(C[N+](C)(C)CCCCCCCCCCCCCC)c1.[Br-].[Br-].[Br-] [Compound 4]"
  parameter: "CAC"
  value_reported: "0.47 mM"

Give the measured CAC of CCCCCCCCCCCC[N+](C)(C)Cc1cc(C[N+](C)(C)CCO)cc(C[N+](C)(C)CCCCCCCCCCCC)c1.[Br-].[Br-].[Br-] [Compound 3] . 1.9 mM
